assay: logP by HPLC on reversed-phase columns (EEC Directive 79/831 Annex V.A8); format: physicochemical; details: pH 2.7
value kind: log p [b]
Could you keep your reply to the number by itself?

### Prompt # get_value(readout='log p [b]', item= CC1(C)COC(c2cccc(Nc3ncc(Br)c(NC4CC4)n3)c2)OC1 [Example 16] )
### Response 2.65

### Prompt What does the record list as log p [b] for Fc1ccc(Nc2ncc(Cl)c(NC3CC3)n2)cc1C1OCCO1 [Example 128] ?
### Response 1.75

### Prompt Quick one: log p [b] of CC1(C)CCOC(c2cccc(Nc3ncc(Cl)c(NC4CC4)n3)c2)O1 (stereo not drawn) [Example 100] ?
### Response 2.22
